# testMethodNotes: Step-down Passive Avoidance Test (Mondadori and Waser): memory improvement
# Format: in vivo
# conditionDescription: 1,0 mg/kg i.p.; significance by Mann-Whitney U test
endpointLabel: Gedächtnisverbesserung

COC(=O)C1=CCN(CCc2c[nH]c3ccccc23)CC1 [Isomere C] :: keinen
CCOC(=O)C1=CCCN(Cc2c[nH]c3ccccc23)C1 [Isomere B] :: keinen
COC(=O)C1=CN(CCc2c[nH]c3ccccc23)CCC1 [Isomere A] :: keinen
